The measurements presented in this section are drawn from PubChem BioAssay AID743026.

tgt: Muscarinic acetylcholine receptor M5 (Homo sapiens)
assay.summary: M5 muscarinic receptor negative allosteric modulators, dose response, cell-based, concentration-response curves, human M5 (AID 743026)
stated.conditions: CHO-K1 hM5, ACh EC80 calcium flux, Fluo-4
measured.parameter: IC50

Here are 2 compounds together with their reported answers.
[[record]]
compound = "O=C(c1cc(Cl)cc(Cl)c1)N1CCN2C(=O)c3ccccc3C12c1ccccc1 (centres undefined)"
observed = "5.81 µM"

[[record]]
compound = "O=C(c1cccc(C(F)(F)F)c1)N1CCN2C(=O)c3ccccc3C12c1ccccc1 (centres undefined)"
observed = "3 µM"


Now turn to the next compound.
-- ask Return reported IC50; argument: O=C(c1cc(F)cc(F)c1)N1CCN2C(=O)c3ccccc3C12c1ccccc1 (centres undefined)
-- reply 3.84 µM
